- measurement.protocol: yeast display, Sf9 membrane polyspecificity reagent, FACS + sequencing; frameworks hold sequencing errors

polymer.sequence: QVQLGESGGGLVQAGGSLRLSCAASGNTFYRNAMGWYRQAPGKERELVAAIDYSAGSTYYADCVKGRFTISRDNAKNTVYLQMHSLKPEDTADDYCAAVARTSRGRRYYSWGQGTQVTVSS
polyreactivity (PSR sort gate): low polyreactivity
--
polymer.sequence: QVQLVESGGGLVQAGGSLRLSCAASGRIFQYNVMGWYRKAPGKERELVASISDGVGTNYADSVKGRFTISRDNAKNTVYLQMNSLKPEDTAVYYCARDLDPGYQYTGPYDYWGQGTQVTVSS
polyreactivity (PSR sort gate): low polyreactivity
--
polymer.sequence: QVQLVESGGGLVQAGASLRLSCAASGSISKSYAMGWYRQAPGKERELVAAISWRGGSTYADSVKGRFTISRDNAKNTVYLQMNSLKPEDTAVYYCAATNYGTFWGGQSERYDYWGQGTQVTVSS
polyreactivity (PSR sort gate): low polyreactivity
--
polymer.sequence: QVQLVESGGVLVQAGGSLRLSCAASGRTSFYYGVGWSRQAPGKERELVAGINYGGGSTYYADSVKGRFSISRDTAKNTVYLQMNSLKPEDTAVYYCAAYRRTLGDYWGQGTQVTVSS
polyreactivity (PSR sort gate): low polyreactivity
